Values from patent US12473289B2

// values below are reported inhibition in vivo at 30 mg/kg
Biological target: Delta-5-Desaturase (D5D) (Mus musculus (Mouse), UniProt Q920L1)
Sequence (Q920L1 whole entry): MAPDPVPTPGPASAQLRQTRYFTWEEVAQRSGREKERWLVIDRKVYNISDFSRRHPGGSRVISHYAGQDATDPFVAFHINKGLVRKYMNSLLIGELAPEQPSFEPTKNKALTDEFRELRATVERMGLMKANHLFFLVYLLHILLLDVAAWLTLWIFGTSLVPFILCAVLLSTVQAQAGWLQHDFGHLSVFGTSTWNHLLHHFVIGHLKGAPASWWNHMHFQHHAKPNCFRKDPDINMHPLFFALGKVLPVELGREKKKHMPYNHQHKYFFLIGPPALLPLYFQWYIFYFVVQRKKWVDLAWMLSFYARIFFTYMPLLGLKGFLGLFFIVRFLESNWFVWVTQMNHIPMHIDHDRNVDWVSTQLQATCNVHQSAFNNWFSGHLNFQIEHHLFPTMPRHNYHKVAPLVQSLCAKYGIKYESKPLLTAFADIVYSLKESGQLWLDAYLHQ
Assay: In vivo measurement of Delta-5-Desaturase inhibitory activity (plasma AA/DGLA ratio in DIO mice)
Settings: single oral dose 30 mg/kg, read-out: Average % D5D Inhibition expressed as Plasma Endogenous AA/DGLA Ratio
Write it as a number; the unit % goes unstated.

Ask: // query inhibition in vivo at 30 mg/kg value for entry COc1ccn2c(=O)c(-c3ccc(OCC(F)(F)F)cc3)c(C(F)(F)F)nc2n1 [Example 1-50]
Reply: 73

Ask: Another: [2H]C([2H])([2H])Oc1ccn2c(=O)c(-c3ccc(OCC(F)(F)F)cc3)c(C(F)(F)F)nc2c1 [Example 11-2]
Reply: 79

Ask: Another: COc1ccn2c(=O)c(-c3ccc(OCC(F)(F)F)cc3)c(C(F)F)nc2c1 [Example 1-15]
Reply: 70

Ask: Another: COc1ccn2c(=O)c(-c3ccc(OC(F)(F)F)cc3F)c(C(F)(F)F)nc2c1 [Example 1-9]
Reply: 35

====

Molecular target: Delta-5-Desaturase (D5D) (Mus musculus (Mouse), UniProt Q920L1)
Assay: In vivo measurement of Delta-5-Desaturase inhibitory activity (plasma AA/DGLA ratio in DIO mice)
Details: single oral dose 30 mg/kg, read-out: Average % D5D Inhibition expressed as Plasma Endogenous AA/DGLA Ratio
// values below are reported inhibition in vivo at 30 mg/kg
Write it as a number; the unit % goes unstated.

COc1ccn2c(=O)c(-c3ccc(OC(F)(F)F)cc3)c(C(F)(F)F)nc2n1 : 54

# evaluate next
Ask: // query inhibition in vivo at 30 mg/kg value for entry "[2H]C([2H])([2H])Oc1ccn2c(=O)c(-c3cnn(CC(F)(F)C(F)(F)F)c3)c(C(F)(F)F)nc2c1"
Reply: 84

====

Target: Delta-5-Desaturase (D5D) (Homo sapiens (Human), UniProt O60427)
Sequence (O60427 whole entry, species assumed): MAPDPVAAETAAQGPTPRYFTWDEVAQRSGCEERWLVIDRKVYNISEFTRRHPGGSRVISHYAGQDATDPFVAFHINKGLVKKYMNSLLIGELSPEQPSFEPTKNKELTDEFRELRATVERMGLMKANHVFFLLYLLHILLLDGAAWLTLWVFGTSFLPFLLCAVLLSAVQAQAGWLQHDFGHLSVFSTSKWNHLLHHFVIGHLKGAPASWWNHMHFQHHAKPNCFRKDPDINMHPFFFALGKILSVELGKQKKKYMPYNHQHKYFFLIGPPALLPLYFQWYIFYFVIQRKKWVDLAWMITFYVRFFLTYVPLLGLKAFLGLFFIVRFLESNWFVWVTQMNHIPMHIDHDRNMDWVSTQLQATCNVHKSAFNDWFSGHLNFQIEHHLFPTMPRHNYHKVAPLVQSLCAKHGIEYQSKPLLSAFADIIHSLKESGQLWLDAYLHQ
Assay: In vitro measurement of Delta-5-Desaturase inhibitory activity using DGLA-CoA and Arachidonyl-CoA mass spectrometric assays
Type: biochemical
Settings: membrane preparations of D5D-overexpressing HEK293 6E cells; averaged over at least two independent runs
experimental-endpoint: pIC50
Please report pIC50 as the negative decimal logarithm of the molar concentration, giving only the number.

COc1cc2nc(C(F)(F)F)c(-c3cnn(CC(F)(F)C(F)(F)F)c3)c(=O)n2cc1F : 7.68

Ask: // query pIC50 value for entry "C[S@@+]([O-])c1ccn2c(=O)c(-c3cnn(CC(F)(F)C(F)(F)F)c3)c(C(F)(F)F)nc2c1"
Reply: 6.76

Ask: Another: "Cc1nccn2c(=O)c(-c3cnn(CC(F)(F)C(F)(F)F)c3)c(C(F)(F)F)nc12"
Reply: 7.19

Ask: Another: "O=c1c(-c2cnn(CC(F)(F)C(F)(F)F)c2)c(C(F)(F)F)nc2cc(OCF)cnn12"
Reply: 7.47

Ask: Another: "COc1ccn2c(=O)c(-c3ccc(OC(F)F)cc3)c(C(F)(F)F)nc2c1"
Reply: 8.18

Ask: Another: "O=c1c(-c2ccc(OCC(F)(F)F)cc2)c(C(F)(F)F)nc2cc(F)ccn12"
Reply: 7.05

Ask: Another: "Nc1ccn2c(=O)c(-c3cnn(CC(F)(F)C(F)(F)F)c3)c(C(F)(F)F)nc2c1"
Reply: 7.83

Ask: Another: "COc1ccn2c(=O)c(-c3ccc(OCC(F)(F)F)cc3)c(C)nc2c1"
Reply: 7.47
